Data origin: patent US6352958B1

# key: entry, value: Postemergence herbicidal activity (% control) SOY
# Tested on: soybean (Glycine max var. Winchester)
# TEST_PROTOCOL: Postemergence herbicidal activity, soybean
# Format: in vivo
# CONDITION_NOTES: rate of application 0.3 Kg/Ha, rated after 12-17 days
Provide the reading as a plain figure in %.

Sample answers from the record:
Cn1c(C(F)(F)F)cc(=O)n(-c2c(F)cc(F)c3cc(C(C)(C)C)oc23)c1=O :: 90
Cn1c(C(F)(F)F)cc(=O)n(-c2ccc(Cl)c3cc(C(N)=O)oc23)c1=O :: 90
Cn1c(C(F)(F)F)cc(=O)n(-c2ccc(Cl)c3cc(C(C)(C)O)oc23)c1=O :: 90
C#CCOc1nc2c(-n3c(=O)cc(C(F)(F)F)n(C)c3=O)c(F)cc(Br)c2o1 :: 80
CCOC(=O)c1cc2cccc(-n3c(=O)cc(C(F)(F)F)n(C)c3=O)c2o1 :: 50

**Q:** Name the recorded Postemergence herbicidal activity (% control) SOY of the molecule listed here: CC(O)Cc1cc2c(Cl)cc(F)c(-n3c(=O)cc(C(F)(F)F)n(C)c3=O)c2o1 (stereo not drawn)
**A:** 95
